Catalogue of Emax values
# Experimental target: Protein cereblon/Receptor-type tyrosine-protein kinase FLT3 (Homo sapiens, UniProt P36888+Q96SW2)
# Sequence (P36888 27-993 limits assumed): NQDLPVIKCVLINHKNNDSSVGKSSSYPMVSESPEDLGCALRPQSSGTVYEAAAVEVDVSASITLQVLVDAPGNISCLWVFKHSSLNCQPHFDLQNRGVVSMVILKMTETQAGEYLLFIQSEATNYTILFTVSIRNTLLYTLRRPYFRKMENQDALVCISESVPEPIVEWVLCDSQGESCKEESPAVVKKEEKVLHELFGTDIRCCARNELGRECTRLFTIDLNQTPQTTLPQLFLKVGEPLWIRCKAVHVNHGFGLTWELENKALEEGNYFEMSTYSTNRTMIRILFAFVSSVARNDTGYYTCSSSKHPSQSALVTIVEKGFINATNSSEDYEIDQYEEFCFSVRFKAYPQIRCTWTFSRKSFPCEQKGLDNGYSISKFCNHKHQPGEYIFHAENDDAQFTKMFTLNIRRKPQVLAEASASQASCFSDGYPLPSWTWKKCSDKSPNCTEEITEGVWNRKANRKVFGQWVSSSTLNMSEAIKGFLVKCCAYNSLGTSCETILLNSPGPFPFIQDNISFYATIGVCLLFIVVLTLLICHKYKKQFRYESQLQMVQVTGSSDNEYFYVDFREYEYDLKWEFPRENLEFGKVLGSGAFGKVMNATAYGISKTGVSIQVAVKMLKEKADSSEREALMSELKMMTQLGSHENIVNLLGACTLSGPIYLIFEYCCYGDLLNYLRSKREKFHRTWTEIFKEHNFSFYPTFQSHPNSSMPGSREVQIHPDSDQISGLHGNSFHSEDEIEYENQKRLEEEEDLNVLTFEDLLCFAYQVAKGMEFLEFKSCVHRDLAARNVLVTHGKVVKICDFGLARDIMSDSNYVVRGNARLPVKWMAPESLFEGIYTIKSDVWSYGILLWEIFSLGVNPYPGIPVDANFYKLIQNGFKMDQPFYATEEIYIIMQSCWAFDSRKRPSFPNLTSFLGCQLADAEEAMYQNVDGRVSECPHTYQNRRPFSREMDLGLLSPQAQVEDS
# Sequence (Q96SW2 whole entry partner): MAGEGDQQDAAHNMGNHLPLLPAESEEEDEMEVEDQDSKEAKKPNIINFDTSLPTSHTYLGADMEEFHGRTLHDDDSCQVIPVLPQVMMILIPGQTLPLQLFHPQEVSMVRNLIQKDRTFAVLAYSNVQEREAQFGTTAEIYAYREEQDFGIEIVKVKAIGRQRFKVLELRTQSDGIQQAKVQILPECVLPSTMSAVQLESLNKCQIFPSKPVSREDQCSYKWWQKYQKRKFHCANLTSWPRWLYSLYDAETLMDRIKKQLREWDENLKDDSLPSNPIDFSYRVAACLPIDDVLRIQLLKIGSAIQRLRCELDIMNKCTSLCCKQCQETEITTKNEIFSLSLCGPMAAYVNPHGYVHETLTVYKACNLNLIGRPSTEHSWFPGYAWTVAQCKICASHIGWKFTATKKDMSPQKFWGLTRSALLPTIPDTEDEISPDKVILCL
# Experiment: PROTAC activity at CRBN/FLT3 in human MV4-11 cells harboring FLT3-ITD mutation assessed as induction of FLT3 degradation by measuring maximal efficacy incubated for 24 hrs by immunoblotting analysis relative to control
# Format: cell-based
Entry rule: numbers only, all in %.

Compound	Measured
CCc1nc(C(N)=O)c(Nc2ccc(N3CCC(N4CCN(C(=O)COc5cccc6c5C(=O)N(C5CCC(=O)NC5=O)C6=O)CC4)CC3)c(OC)c2)nc1NC1CCOCC1 (centres undefined)	86.8
CCc1nc(C(N)=O)c(Nc2ccc(N3CCC(N4CCN(C(=O)COc5cccc6c5CN(C5CCC(=O)NC5=O)C6=O)CC4)CC3)c(OC)c2)nc1NC1CCOCC1 (centres undefined)	94.8
CCc1nc(C(N)=O)c(Nc2ccc(N3CCC(N4CCN(C(=O)CCCCCNc5cccc6c5C(=O)N(C5CCC(=O)NC5=O)C6=O)CC4)CC3)c(OC)c2)nc1NC1CCOCC1 (centres undefined)	77.2

Could you now consider this next compound?
Qu. Tell me measured Emax for CCc1nc(C(N)=O)c(Nc2ccc(N3CCC(N4CCN(C(=O)CNc5cccc6c5C(=O)N(C5CCC(=O)NC5=O)C6=O)CC4)CC3)c(OC)c2)nc1NC1CCOCC1 (centres undefined) please.
Ans. 85

----------
# Experimental target: Protein cereblon/Receptor-type tyrosine-protein kinase FLT3 (Homo sapiens, UniProt P36888+Q96SW2)
# Experiment: PROTAC activity at CRBN/FLT3 in human MV4-11 cells harboring FLT3-ITD mutation assessed as induction of FLT3 degradation at 10 nM incubated for 24 hrs by immunoblotting analysis relative to control
# Assay type: cell-based
Catalogue of Activity values
Entry rule: numbers only, all in %.

Solved entries:
Compound	Activity (%)
CCc1nc(C(N)=O)c(Nc2ccc(N3CCC(N4CCN(C(=O)CCCCCCCNc5ccc6c(c5)C(=O)N(C5CCC(=O)NC5=O)C6=O)CC4)CC3)c(OC)c2)nc1NC1CCOCC1 (centres undefined)	40
CCc1nc(C(N)=O)c(Nc2ccc(N3CCC(N4CCN(C(=O)CCCCCCCCCOc5cccc6c5C(=O)N(C5CCC(=O)NC5=O)C6=O)CC4)CC3)c(OC)c2)nc1NC1CCOCC1 (centres undefined)	0
CCc1nc(C(N)=O)c(Nc2ccc(N3CCC(N4CCN(c5cccc6c5C(=O)N(C5CCC(=O)NC5=O)C6=O)CC4)CC3)c(OC)c2)nc1NC1CCOCC1 (centres undefined)	0

Could you now consider this next compound?
Qu. Tell me measured Activity for CCc1nc(C(N)=O)c(Nc2ccc(N3CCC(N4CCN(C(=O)CCCCCCCOc5ccc6c(c5)C(=O)N(C5CCC(=O)NC5=O)C6=O)CC4)CC3)c(OC)c2)nc1NC1CCOCC1 (centres undefined) please.
Ans. 6

----------
# Experimental target: Protein cereblon/Receptor-type tyrosine-protein kinase FLT3 (Homo sapiens, UniProt P36888+Q96SW2)
# Experiment: PROTAC activity at CRBN/FLT3 in human MV4-11 cells harboring FLT3-ITD mutation assessed as induction of FLT3 degradation at 10 nM incubated for 24 hrs by immunoblotting analysis relative to control
# Type: cell-based
Catalogue of Activity values

Compound	Activity
CCc1nc(C(N)=O)c(Nc2ccc(N3CCC(N4CCN(C(=O)CCCCCOc5cccc6c5C(=O)N(C5CCC(=O)NC5=O)C6=O)CC4)CC3)c(OC)c2)nc1NC1CCOCC1 (configuration not stated)	36%
CCc1nc(C(N)=O)c(Nc2ccc(N3CCC(N4CCN(C(=O)CNc5ccc6c(c5)C(=O)N(C5CCC(=O)NC5=O)C6=O)CC4)CC3)c(OC)c2)nc1NC1CCOCC1 (configuration not stated)	52%
CCc1nc(C(N)=O)c(Nc2ccc(N3CCC(N4CCN(C(=O)CCCCCOc5ccc6c(c5)C(=O)N(C5CCC(=O)NC5=O)C6=O)CC4)CC3)c(OC)c2)nc1NC1CCOCC1 (configuration not stated)	32%
CCc1nc(C(N)=O)c(Nc2ccc(N3CCC(N4CCN(C(=O)CCCNc5cccc6c5C(=O)N(C5CCC(=O)NC5=O)C6=O)CC4)CC3)c(OC)c2)nc1NC1CCOCC1 (configuration not stated)	34%
CCc1nc(C(N)=O)c(Nc2ccc(N3CCC(N4CCN(c5ccc6c(c5)C(=O)N(C5CCC(=O)NC5=O)C6=O)CC4)CC3)c(OC)c2)nc1NC1CCOCC1 (configuration not stated)	0%

Qu. Tell me measured Activity for CCc1nc(C(N)=O)c(Nc2ccc(N3CCC(N4CCN(C(=O)CCCNc5ccc6c(c5)C(=O)N(C5CCC(=O)NC5=O)C6=O)CC4)CC3)c(OC)c2)nc1NC1CCOCC1 (configuration not stated) please.
Ans. 9%

Qu. Tell me measured Activity for CCc1nc(C(N)=O)c(Nc2ccc(N3CCC(N4CCN(C(=O)CCCCCCCOc5cccc6c5C(=O)N(C5CCC(=O)NC5=O)C6=O)CC4)CC3)c(OC)c2)nc1NC1CCOCC1 (configuration not stated) please.
Ans. 29%

Qu. Tell me measured Activity for CCc1nc(C(N)=O)c(Nc2ccc(N3CCC(N4CCN(C(=O)CCCOc5ccc6c(c5)C(=O)N(C5CCC(=O)NC5=O)C6=O)CC4)CC3)c(OC)c2)nc1NC1CCOCC1 (configuration not stated) please.
Ans. 0%

Qu. Tell me measured Activity for CCc1nc(C(N)=O)c(Nc2ccc(N3CCC(N4CCN(C(=O)CCCOc5cccc6c5C(=O)N(C5CCC(=O)NC5=O)C6=O)CC4)CC3)c(OC)c2)nc1NC1CCOCC1 (configuration not stated) please.
Ans. 30%

Qu. Tell me measured Activity for CCc1nc(C(N)=O)c(Nc2ccc(N3CCC(N4CCN(C(=O)CCCCCCCCCNc5ccc6c(c5)C(=O)N(C5CCC(=O)NC5=O)C6=O)CC4)CC3)c(OC)c2)nc1NC1CCOCC1 (configuration not stated) please.
Ans. 0%

Qu. Tell me measured Activity for CCc1nc(C(N)=O)c(Nc2ccc(N3CCC(N4CCN(C(=O)CNc5cccc6c5C(=O)N(C5CCC(=O)NC5=O)C6=O)CC4)CC3)c(OC)c2)nc1NC1CCOCC1 (configuration not stated) please.
Ans. 60%

Qu. Tell me measured Activity for CCc1nc(C(N)=O)c(Nc2ccc(N3CCC(N4CCN(C(=O)CCCCCCCCCOc5ccc6c(c5)C(=O)N(C5CCC(=O)NC5=O)C6=O)CC4)CC3)c(OC)c2)nc1NC1CCOCC1 (configuration not stated) please.
Ans. 0%
